# Tested on: P2X7 (UniProt Q99572)
# Protocol: P2X7 activity of Table 1
# Type: cell-based
# Condition: pIC50 values for P2X7
Measurement type: pIC50
Respond using a number only.

# Compound, Tested on, Data value
data = [
    ("Cc1nnc(-c2ccc(C)c(NC(=O)C3=CNC(=O)C[C@H]3c3ccc(F)cc3)c2)o1 [Compound 30]", "P2X7 (UniProt Q99572)", 6.275),
]

For the compound Cc1ccc(-c2ncccn2)cc1NC(=O)C1=CNC(=O)C[C@H]1c1ccc(F)cc1 [Compound 51] , what pIC50 is on record?
7.87

Now give it for Cc1ccc(-n2ncc(=O)n(CCO)c2=O)cc1NC(=O)C1=CNC(=O)C[C@H]1c1ccc(F)cc1 [Compound 39] too.
7.76

Now give it for Cc1ccc(-c2ccnn(CCO)c2=O)cc1NC(=O)C1=CN(C)C(=O)C[C@H]1c1cccc(F)c1 [Compound 93] too.
7.5

Now give it for Cc1ccc(=O)n(-c2ccc(C)c(NC(=O)C3=CNC(=O)C[C@H]3c3ccc(F)cc3)c2)n1 [Compound 78] too.
7.31

Now give it for Cc1cc(-c2ccc(Cl)c(NC(=O)C3=CN(C)C(=O)C[C@H]3c3ccc(F)cc3)c2)nn1CCO [Compound 115] too.
7.04

Now give it for Cc1cc(-c2ccc(C)c(NC(=O)C3=CNC(=O)C[C@H]3c3cccc(F)c3)c2)n[nH]1 [Compound 22] too.
7.75
